- target_system: Nitric oxide synthase, inducible (Mus musculus, UniProt P29477)
- Sequence (P29477 whole entry): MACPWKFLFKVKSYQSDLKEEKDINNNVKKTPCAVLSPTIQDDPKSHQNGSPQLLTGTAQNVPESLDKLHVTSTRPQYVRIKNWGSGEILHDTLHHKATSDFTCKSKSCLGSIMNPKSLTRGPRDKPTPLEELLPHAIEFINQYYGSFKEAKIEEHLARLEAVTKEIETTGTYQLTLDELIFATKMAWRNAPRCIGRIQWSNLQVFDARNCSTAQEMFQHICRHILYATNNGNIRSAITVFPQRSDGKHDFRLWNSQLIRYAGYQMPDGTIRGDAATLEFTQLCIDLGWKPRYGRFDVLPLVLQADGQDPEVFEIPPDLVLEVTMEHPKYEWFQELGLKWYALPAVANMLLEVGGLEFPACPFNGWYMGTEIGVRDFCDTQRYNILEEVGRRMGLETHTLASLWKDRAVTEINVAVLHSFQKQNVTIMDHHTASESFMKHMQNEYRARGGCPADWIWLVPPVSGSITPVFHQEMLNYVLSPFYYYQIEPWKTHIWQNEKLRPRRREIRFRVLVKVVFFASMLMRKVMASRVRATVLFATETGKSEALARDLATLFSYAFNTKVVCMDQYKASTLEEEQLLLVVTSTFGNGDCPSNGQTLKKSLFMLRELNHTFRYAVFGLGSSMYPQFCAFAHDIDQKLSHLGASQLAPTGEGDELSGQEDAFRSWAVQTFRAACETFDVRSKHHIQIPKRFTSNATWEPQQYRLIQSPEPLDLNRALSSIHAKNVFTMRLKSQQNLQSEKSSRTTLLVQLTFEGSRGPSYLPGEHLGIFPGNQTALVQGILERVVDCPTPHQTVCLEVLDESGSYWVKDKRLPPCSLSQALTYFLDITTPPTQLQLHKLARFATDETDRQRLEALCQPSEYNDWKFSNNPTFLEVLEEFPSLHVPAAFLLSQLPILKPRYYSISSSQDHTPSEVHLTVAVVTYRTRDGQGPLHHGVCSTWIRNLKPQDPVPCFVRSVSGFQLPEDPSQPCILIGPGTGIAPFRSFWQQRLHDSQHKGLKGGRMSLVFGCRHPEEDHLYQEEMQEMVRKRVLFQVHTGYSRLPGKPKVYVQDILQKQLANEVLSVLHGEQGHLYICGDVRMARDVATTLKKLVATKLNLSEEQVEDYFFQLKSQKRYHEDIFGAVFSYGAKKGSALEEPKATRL
- assay_comment: Inhibition of iNOS in mouse RAW264.7 cells assessed as inhibition of LPS-induced nitric oxide overproduction incubated for 24 hrs by Griess assay
Recorded measurements of pIC50, one per entry
Scale note: pIC50 = -log10(concentration in M).

Look over these answered cases.
N=C(NCCC[C@H](N)C(=O)O)N[N+](=O)[O-]	4.56
CN(C)c1cccc2c(S(=O)(=O)Oc3cccc4oc(=O)n(CCc5ccccc5)c34)cccc12	4.83
CN(C)c1cccc2c(S(=O)(=O)Oc3cccc4oc(=O)n(Cc5ccccc5)c34)cccc12	4.78

// next entry
Dear colleague, please send me the reported pIC50 for `Cn1cnc(S(=O)(=O)Oc2cccc3oc(=O)n(CCc4ccccc4)c23)c1` when you can.
4.87

Attribution: ChEMBL document CHEMBL4665856
